# STUDY_SYSTEM: Herpes simplex, Type I DNA Polymerase (Human herpesvirus 1)
# Sequence (P04293 whole entry): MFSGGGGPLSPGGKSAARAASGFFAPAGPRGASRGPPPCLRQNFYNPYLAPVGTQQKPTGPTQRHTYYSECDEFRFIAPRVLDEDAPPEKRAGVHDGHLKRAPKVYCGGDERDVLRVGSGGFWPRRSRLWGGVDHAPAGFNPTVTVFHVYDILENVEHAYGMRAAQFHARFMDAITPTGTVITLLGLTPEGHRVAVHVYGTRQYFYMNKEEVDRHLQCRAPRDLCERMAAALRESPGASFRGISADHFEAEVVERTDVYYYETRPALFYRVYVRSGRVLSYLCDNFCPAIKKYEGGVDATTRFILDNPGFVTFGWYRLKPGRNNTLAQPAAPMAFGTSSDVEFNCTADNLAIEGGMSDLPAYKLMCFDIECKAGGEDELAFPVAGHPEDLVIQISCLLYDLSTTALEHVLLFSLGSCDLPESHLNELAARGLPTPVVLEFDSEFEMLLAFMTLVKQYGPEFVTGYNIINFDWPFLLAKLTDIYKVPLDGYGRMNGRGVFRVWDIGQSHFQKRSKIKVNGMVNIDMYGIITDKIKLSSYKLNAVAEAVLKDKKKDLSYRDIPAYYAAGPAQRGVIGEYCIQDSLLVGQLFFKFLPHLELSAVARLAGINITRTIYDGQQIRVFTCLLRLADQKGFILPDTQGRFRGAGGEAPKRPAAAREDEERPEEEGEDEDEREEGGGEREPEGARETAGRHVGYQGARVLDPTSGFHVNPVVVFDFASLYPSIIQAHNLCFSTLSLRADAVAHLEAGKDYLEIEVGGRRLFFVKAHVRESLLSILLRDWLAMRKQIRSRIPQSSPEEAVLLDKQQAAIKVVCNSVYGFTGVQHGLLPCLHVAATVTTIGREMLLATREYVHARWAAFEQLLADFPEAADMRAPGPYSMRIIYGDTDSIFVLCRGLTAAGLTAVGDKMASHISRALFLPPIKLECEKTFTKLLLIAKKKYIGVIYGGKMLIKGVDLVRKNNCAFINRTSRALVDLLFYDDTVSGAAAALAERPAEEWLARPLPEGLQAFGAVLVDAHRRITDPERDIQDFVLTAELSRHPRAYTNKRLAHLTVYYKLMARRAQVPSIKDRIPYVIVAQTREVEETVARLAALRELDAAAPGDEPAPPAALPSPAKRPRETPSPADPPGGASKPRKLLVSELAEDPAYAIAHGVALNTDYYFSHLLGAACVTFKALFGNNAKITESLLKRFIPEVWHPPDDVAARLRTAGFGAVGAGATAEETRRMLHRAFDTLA
pIC50: −log10 of the molar value.

# SMILES_TEXT, pIC50
records = [
    ("CCCCc1ccc(Nc2nc3c(ncn3[C@H]3C[C@H](O)[C@@H](COP(=O)(O)OP(=O)(O)OP(=O)(O)O)O3)c(=O)[nH]2)cc1", 5.40),
]

---

# STUDY_SYSTEM: DNA Polymerase III from Bacillus subtilis (Bacillus subtilis, UniProt P13267)
# Construct: DNA Polymerase III from Bacillus subtilis; endogenous in cells
# Sequence (P13267 whole entry): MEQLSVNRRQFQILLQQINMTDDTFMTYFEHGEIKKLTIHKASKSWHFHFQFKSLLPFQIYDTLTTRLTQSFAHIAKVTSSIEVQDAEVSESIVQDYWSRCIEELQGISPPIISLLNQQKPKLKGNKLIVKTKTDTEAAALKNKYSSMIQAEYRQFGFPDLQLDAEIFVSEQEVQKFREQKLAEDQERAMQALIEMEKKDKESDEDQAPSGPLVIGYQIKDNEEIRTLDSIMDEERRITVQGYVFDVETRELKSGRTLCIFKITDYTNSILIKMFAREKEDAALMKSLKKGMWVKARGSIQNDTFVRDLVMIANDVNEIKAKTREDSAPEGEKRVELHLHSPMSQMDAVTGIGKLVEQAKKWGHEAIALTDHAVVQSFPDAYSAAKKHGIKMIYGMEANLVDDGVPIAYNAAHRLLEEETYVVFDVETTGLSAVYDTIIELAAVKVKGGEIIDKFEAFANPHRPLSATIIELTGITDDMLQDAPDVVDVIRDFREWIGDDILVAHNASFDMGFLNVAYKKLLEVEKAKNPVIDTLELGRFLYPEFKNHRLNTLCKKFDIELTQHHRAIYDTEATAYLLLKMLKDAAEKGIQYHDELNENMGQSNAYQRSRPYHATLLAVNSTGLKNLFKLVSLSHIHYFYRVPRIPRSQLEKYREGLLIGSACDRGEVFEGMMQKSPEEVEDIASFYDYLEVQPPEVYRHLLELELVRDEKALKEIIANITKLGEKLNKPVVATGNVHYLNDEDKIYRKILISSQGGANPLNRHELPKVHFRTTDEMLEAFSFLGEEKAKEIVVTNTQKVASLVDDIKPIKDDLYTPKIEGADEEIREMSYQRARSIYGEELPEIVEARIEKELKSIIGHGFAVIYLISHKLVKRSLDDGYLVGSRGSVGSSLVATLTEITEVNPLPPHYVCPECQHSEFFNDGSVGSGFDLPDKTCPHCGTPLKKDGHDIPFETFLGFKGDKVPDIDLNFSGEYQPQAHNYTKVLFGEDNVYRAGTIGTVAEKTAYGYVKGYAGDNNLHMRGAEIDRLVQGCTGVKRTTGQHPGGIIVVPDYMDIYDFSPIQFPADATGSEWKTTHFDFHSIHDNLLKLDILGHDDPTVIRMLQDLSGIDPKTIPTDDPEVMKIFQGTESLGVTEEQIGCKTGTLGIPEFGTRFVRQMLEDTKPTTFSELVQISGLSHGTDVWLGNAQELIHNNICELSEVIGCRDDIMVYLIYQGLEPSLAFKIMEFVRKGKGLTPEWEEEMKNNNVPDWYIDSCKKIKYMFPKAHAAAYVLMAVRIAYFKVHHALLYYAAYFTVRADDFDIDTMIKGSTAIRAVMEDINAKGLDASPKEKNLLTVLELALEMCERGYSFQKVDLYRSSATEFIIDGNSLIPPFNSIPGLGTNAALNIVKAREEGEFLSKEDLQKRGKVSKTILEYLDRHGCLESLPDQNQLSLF
# MEASUREMENT_DESCRIPTION: Half-maximal inhibition of DNA polymerase III from Bacillus subtilis
# APPLIED_CONDITIONS: read-out: Micromolar Concentration of Drug Causing Half-Maximal Inhibition of DNA Polymerase III from Bacillus subtilis
MEASURED_METRIC: IC50 (µM)

# COMPOUND, READING_UNIT, MEASURED_NUMBER
measured = [
    ("O=c1[nH]c(Nc2ccc3c(c2)CCC3)nc2nc[nH]c12 [TMPG, N^2-(3',4'-trimethylenephenyl)guanine]", "µM", 5),
    ("CCc1cc(Nc2nc(O)c3[nH]cnc3n2)ccc1C [EMPG, N^2-(3'-ethyl-4'-methylphenyl)guanine]", "µM", 2),
]

---

# STUDY_SYSTEM: Vaccinia DNA Polymerase (Vaccinia virus)
MEASURED_METRIC: IC50 (µM)

# SMILES_TEXT, MEASURED_NUMBER
rows = [
    ("CCCCc1ccc(Nc2nc3c(ncn3[C@H]3C[C@H](O)[C@@H](COP(=O)(O)OP(=O)(O)OP(=O)(O)O)O3)c(=O)[nH]2)cc1", 10),
]

---

# STUDY_SYSTEM: DNA Polymerase α from Chinese hamster ovary cells (Cricetulus griseus)
# Construct: Chinese hamster ovary cells; endogenous in cells
# Sequence (A0A8C2M319 1-1468): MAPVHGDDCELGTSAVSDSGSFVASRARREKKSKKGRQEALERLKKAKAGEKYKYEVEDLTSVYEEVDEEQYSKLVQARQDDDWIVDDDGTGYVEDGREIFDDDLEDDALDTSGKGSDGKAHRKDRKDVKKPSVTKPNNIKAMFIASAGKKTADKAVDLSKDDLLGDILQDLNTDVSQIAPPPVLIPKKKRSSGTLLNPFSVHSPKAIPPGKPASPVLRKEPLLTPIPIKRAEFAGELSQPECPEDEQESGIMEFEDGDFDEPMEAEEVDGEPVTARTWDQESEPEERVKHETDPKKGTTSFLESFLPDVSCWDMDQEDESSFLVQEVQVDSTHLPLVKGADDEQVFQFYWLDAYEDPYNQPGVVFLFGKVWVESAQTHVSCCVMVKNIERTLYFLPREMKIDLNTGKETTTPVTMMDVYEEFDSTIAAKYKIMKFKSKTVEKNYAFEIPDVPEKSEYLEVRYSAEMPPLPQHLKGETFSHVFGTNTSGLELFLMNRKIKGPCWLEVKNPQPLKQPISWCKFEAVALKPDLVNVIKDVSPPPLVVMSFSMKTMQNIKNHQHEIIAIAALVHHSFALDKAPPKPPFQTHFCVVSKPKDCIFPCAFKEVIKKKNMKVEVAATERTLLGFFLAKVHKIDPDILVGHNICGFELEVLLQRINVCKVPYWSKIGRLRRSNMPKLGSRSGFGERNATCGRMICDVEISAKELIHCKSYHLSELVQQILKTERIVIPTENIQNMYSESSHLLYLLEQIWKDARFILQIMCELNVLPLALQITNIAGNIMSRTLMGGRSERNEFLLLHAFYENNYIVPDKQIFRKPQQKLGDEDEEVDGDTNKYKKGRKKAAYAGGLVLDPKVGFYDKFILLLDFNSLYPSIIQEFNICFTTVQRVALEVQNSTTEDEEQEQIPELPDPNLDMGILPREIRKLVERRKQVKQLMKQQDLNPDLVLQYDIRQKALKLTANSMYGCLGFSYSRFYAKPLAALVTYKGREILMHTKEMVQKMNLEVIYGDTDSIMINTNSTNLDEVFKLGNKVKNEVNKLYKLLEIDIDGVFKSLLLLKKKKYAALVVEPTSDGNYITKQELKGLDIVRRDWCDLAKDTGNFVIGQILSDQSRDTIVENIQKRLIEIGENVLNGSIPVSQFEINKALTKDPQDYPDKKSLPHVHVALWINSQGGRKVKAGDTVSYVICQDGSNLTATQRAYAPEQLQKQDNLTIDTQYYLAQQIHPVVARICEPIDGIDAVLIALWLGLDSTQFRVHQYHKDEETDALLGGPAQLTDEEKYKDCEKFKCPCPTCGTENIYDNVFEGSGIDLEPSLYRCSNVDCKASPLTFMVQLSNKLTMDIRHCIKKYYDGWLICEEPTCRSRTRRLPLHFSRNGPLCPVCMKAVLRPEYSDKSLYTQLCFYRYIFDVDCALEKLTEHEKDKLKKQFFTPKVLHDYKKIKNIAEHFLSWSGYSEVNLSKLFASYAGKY
# MEASUREMENT_DESCRIPTION: Half-maximal inhibition / percent inhibition of DNA polymerase α from Chinese hamster ovary cells
# APPLIED_CONDITIONS: read-out: Drug Concentration in Micromolar Causing Half-Maximal Inhibition of DNA Polymerase α From Chinese hamster ovary cells
MEASURED_METRIC: IC50

# SMILES_TEXT, STUDY_SYSTEM, MEASURED_METRIC, RESULT
rows = [
    ("CCCCc1ccc(Nc2nc3c(ncn3[C@H]3C[C@H](O)[C@@H](CO)O3)c(=O)[nH]2)cc1", "DNA Polymerase α from Chinese hamster ovary cells (Cricetulus griseus)", "IC50", "10000 nM"),
    ("CCCCc1ccc(Nc2nc3nc[nH]c3c(=O)[nH]2)cc1", "DNA Polymerase α from Chinese hamster ovary cells (Cricetulus griseus)", "IC50", "4800 nM"),
    ("CCCCc1ccc(Nc2nc3c(ncn3[C@H]3C[C@H](O)[C@@H](COP(=O)(O)O)O3)c(=O)[nH]2)cc1", "DNA Polymerase α from Chinese hamster ovary cells (Cricetulus griseus)", "IC50", "520 nM"),
    ("CCCCc1ccc(Nc2nc3c(ncn3[C@H]3C[C@H](O)[C@@H](COP(=O)(O)OP(=O)(O)OP(=O)(O)O)O3)c(=O)[nH]2)cc1", "DNA Polymerase α from Chinese hamster ovary cells (Cricetulus griseus)", "IC50", "5 nM"),
    ("CCCCc1ccc(Nc2nc3c(ncn3[C@H]3C[C@H](O)[C@@H](COP(=O)(O)OP(=O)(O)O)O3)c(=O)[nH]2)cc1", "DNA Polymerase α from Chinese hamster ovary cells (Cricetulus griseus)", "IC50", "14 nM"),
]

---

# STUDY_SYSTEM: Herpes simplex, Type II DNA Polymerase (Human herpesvirus 2)

# SMILES_TEXT, IC50
data = [
    ("CCCCc1ccc(Nc2nc3c(ncn3[C@H]3C[C@H](O)[C@@H](COP(=O)(O)OP(=O)(O)OP(=O)(O)O)O3)c(=O)[nH]2)cc1", "4 µM"),
]
